Assay: in vivo
Design: species or system mice
Conditions: mouse, sc, 50 mg/kg
Metric: AUC (µM·h)
The figure you give is taken to be in µM·h; do not add the unit.

Fill in: AUC of "NCCS" is ___
47.4

* * *

Assay: in vivo
Parameters: species or system mice
Conditions: mouse, sc, 50 mg/kg
Metric: Cmax

Can you share its Cmax? I mean this compound: NCCS [Cysteamine]
~80 µM

* * *

Assay: in vivo
Design: species or system mice
Conditions: mouse, sc, 120 mg/kg
Metric: AUC (µM·h)
Return type: number; implicit unit µM·h.

Which AUC reading was recorded for the compound "NCCS" ?
255

* * *

Test: in vivo
Set-up: species or system mice
Settings: mouse, sc, 120 mg/kg
Metric: Cmax (µM)
Give the value, in units of µM, as a plain number.

What value of measured Cmax is listed for "NCCS" ?
250

* * *

Experiment: in vivo
Parameters: species or system mice
Settings: mouse, sc, 120 mg/kg
Metric: Tmax (min)
Please give a number only; it is taken to be in min.

Fill in the blank: the reported Tmax of "NCCS" is ____.
30

* * *

Experiment: in vivo
Parameters: species or system mice
Settings: mouse, ip, 120 mg/kg
Metric: Cmax

Record request: Cmax value, item "NCCS"
665 µM
